Assay: Drug level in Sprague-Dawley rat brain at 10 mg/kg, po after 1 hr
Format: ADME, organism-based
Set-up: dose 10 mg/kg, route oral
Settings: read-out: Drug uptake
Exercise: for every item that follows, state its recorded concentration at 1 h.
Lab book: enter the figure in ng/g, no units written.

Prompt: Please give the measured concentration at 1 h for this compound: Cc1ccc(N2CCN(C(=O)[C@@H](Cc3ccc(Cl)cc3Cl)N3CCCC3=O)CC2)c([C@H](CC(C)C)NC(=O)CCN(C)C)c1
Completion: 1.5

Prompt: Please give the measured concentration at 1 h for this compound: Cc1ccc(N2CCN(C(=O)[C@H](C)Cc3ccc(Cl)cc3)CC2)c([C@H](CC(C)C)NC(=O)CCN(C)C)c1
Completion: 12

Prompt: Please give the measured concentration at 1 h for this compound: CC(C)C[C@H](NC(=O)CCN(C)C)c1cc(Cl)ccc1N1CCN(C(=O)[C@H](C)Cc2ccc(Cl)cc2)CC1
Completion: 3

Prompt: Please give the measured concentration at 1 h for this compound: Cc1ccc([C@@H](CC(C)C)NC(=O)CCN(C)C)c(N2CCN(C(=O)[C@H](C)Cc3ccc(Cl)cc3Cl)CC2)n1
Completion: 15
